Hello, the source for this data is ChEMBL document CHEMBL1201862, in case you need it.

Target: UniProt G5EF15
Sequence (G5EF15 whole entry, the tested form may be a part): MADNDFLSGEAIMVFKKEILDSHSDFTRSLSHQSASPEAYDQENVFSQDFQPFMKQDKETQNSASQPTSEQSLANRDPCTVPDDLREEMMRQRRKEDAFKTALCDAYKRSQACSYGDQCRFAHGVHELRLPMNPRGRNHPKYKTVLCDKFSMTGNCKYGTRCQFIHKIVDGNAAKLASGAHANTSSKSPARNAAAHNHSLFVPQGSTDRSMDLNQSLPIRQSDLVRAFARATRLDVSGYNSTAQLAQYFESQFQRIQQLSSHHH
Experiment: disruptors of C. elegans POS-1 RNA interaction – biochemical, fluorescence polarization, dose response (AID 1964);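 note: purified POS-1 fused to maltose binding protein made in E. coli; potency of compounds blocking POS-1 binding to fluorescent RNA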
Activity calls are given as the source filed them. Cut-off read from the data, not from the text of the source: actives have a measured EC50 and inactives only a lower limit.
Assay Metric: EC50

Sample answers from the record:
In [3]: df
Out[3]:
                                   compound  assay_metric                 result
0  Cc1cc(N/C=C2/C(=O)N(c3ccc4c(c3)OCO4)C(=O)c3ccccc32)ccn1          EC50       27.5 µM (active)
1   COc1ccccc1-c1cnn2c(NCc3ccccc3)cc(C)nc12          EC50  > 300 µM (not active)
2  C=CCOc1ccc(C2OC34CCCCC3C(C#N)(C#N)C2(C#N)C(=N)O4)cc1 (stereo unspecified)          EC50       12.5 µM (active)
3  COc1ccc(N2C(=O)C(Cl)=C(Nc3ccccc3O)C2=O)cc1          EC50  > 300 µM (not active)
4  O=C(O)CCCN1C(=O)/C(=C/c2ccc(-c3nc4ccccc4s3)o2)SC1=S          EC50       3.39 µM (active)

Reported UniProt G5EF15 EC50 for item CCOc1ccccc1NC(=O)Nc1ccc(OC)nc1 was 31.6 µM (active)

Reported UniProt G5EF15 EC50 for item O=c1c(/C=C(\O)c2ccccc2)nc2ccccc2n1-c1ccccc1 was 78.2 µM (inconclusive)

Reported UniProt G5EF15 EC50 for item Cc1ccc(/C=C2\Oc3c(ccc(O)c3CN3CCN(C)CC3)C2=O)cc1 was 43.7 µM (active)

Reported UniProt G5EF15 EC50 for item CC1(OC(=O)c2cccs2)C(=O)C=C2C=C(c3ccc(C#N)cc3)OC=C2C1=O (stereo unspecified) was 93.2 µM (active)

Reported UniProt G5EF15 EC50 for item CC(=O)n1c(/C=N/c2ccccc2)c(O)c2ccccc21 was > 300 µM (not active)

Reported UniProt G5EF15 EC50 for item Cc1ccc(-c2ccccc2)n1-c1ccc(C(=O)O)cc1 was > 300 µM (not active)
